assay: Microsomal stability, human liver microsomes; type: in vitro ADME; conditions: human, pooled liver microsomes, pH 7.4; read-out: Microsomal stability CLint, hum
property-label: microsomal CLint at 10 µM (µL/min/mg)
// units = µL/min/mg; emit number, no label

Input: Give its microsomal CLint at 10 µM value. Item: "O=C(OC1COC1)[C@@H]1[C@H]2C[C@H]3c4[nH]c5ccccc5c4CCN3C[C@@H]2CC[C@@H]1O"
Output: 16

---

Attribute: viability at 72 h, 10 µM
test: Cytotoxicity assay (CellTiter-Glo) on normal human dermal fibroblasts; assay type: cell-based; settings: normal human dermal fibroblasts (NHDF), 10 μM, untreated control = 100%, read-out: NHDF Viability 10 μM
// units = %; emit number, no label

O=C(OC1CNC1)[C@@H]1[C@H]2C[C@H]3c4[nH]c5ccccc5c4CCN3C[C@@H]2CC[C@@H]1O [Compound 4m]
77
O=C(OC[C@@H]1CCCN1)[C@@H]1[C@H]2C[C@H]3c4[nH]c5ccccc5c4CCN3C[C@@H]2CC[C@@H]1O [Compound 4b]
103
N[C@H]1C[C@H](OC(=O)[C@@H]2[C@H]3C[C@H]4c5[nH]c6ccccc6c5CCN4C[C@@H]3CC[C@@H]2O)C1 [Compound 4n]
89

Input: Give its viability at 72 h, 10 µM value. Item: O=C(OC[C@@H]1CCN1)[C@@H]1[C@H]2C[C@H]3c4[nH]c5ccccc5c4CCN3C[C@@H]2CC[C@@H]1O [Compound 4h]
Output: 118

Input: Give its viability at 72 h, 10 µM value. Item: O=C(OC1CCNCC1)[C@@H]1[C@H]2C[C@H]3c4[nH]c5ccccc5c4CCN3C[C@@H]2CC[C@@H]1O [Compound 4d]
Output: 104

Input: Give its viability at 72 h, 10 µM value. Item: CC(C)OC(=O)[C@@H]1[C@H]2C[C@H]3c4[nH]c5ccccc5c4CCN3C[C@@H]2CC[C@@H]1O [Compound 3b]
Output: 102

---

Assay: Plasma stability assay, human plasma
Format: in vitro ADME
Conditions: pooled plasma; human plasma, 5 μM, 37 °C; read-out: Plasma stability % remaining at 6 h, hum
Protocol: […] The reactions were terminated by adding 4 vol of ice-cold methanol, and the samples were then mixed vigorously, frozen at −20 °C for 1 h, and left overnight at 8 °C. After that, the samples were centrifuged, and the supernatant was analyzed by means of LC–MS/MS Sciex 6500 triple quadrupole (Sciex, Framingham, MA, USA). Zero time points were prepared by adding ice-cold methanol to the compound prior to the addition of the plasma.
property-label: remaining at 6 h, 5 μM (%)
// units = %; emit number, no label

CC(C)OC(=O)[C@@H]1[C@H]2C[C@H]3c4[nH]c5ccccc5c4CCN3C[C@@H]2CC[C@@H]1O
102
N[C@H]1C[C@H](OC(=O)[C@@H]2[C@H]3C[C@H]4c5[nH]c6ccccc6c5CCN4C[C@@H]3CC[C@@H]2O)C1
99

Input: Give its remaining at 6 h, 5 μM value. Item: "CCOC(=O)[C@@H]1[C@H]2C[C@H]3c4[nH]c5ccccc5c4CCN3C[C@@H]2CC[C@@H]1O"
Output: 109

Input: Give its remaining at 6 h, 5 μM value. Item: "O=C(OC1CNC1)[C@@H]1[C@H]2C[C@H]3c4[nH]c5ccccc5c4CCN3C[C@@H]2CC[C@@H]1O"
Output: 100

Input: Give its remaining at 6 h, 5 μM value. Item: "O=C(OC1CCNCC1)[C@@H]1[C@H]2C[C@H]3c4[nH]c5ccccc5c4CCN3C[C@@H]2CC[C@@H]1O"
Output: 100

Input: Give its remaining at 6 h, 5 μM value. Item: "O=C(OC[C@H]1CCCN1)[C@@H]1[C@H]2C[C@H]3c4[nH]c5ccccc5c4CCN3C[C@@H]2CC[C@@H]1O"
Output: 88

Input: Give its remaining at 6 h, 5 μM value. Item: "CNCCOC(=O)[C@@H]1[C@H]2C[C@H]3c4[nH]c5ccccc5c4CCN3C[C@@H]2CC[C@@H]1O"
Output: 91

---

Attribute: microsomal CLint at 10 µM
Experiment: Microsomal stability, rat liver microsomes
Assay type: in vitro ADME
Details: pH 7.4; rat liver microsomes
Procedure: . Zero time points were prepared by adding ice-cold methanol to a mixture of the compound with cofactors prior to the addition of microsomes. […]. Intrinsic clearance (CLint) was calculated using the following formula: [drawing 1] where V = incubation volume per milligram of microsomal protein (μL/mg) and t1/2 = microsomal half-life.
// units = µL/min/mg; emit number, no label

Some compounds with known microsomal CLint at 10 µM results, for comparison:
CCOC(=O)[C@@H]1[C@H]2C[C@H]3c4[nH]c5ccccc5c4CCN3C[C@@H]2CC[C@@H]1O
3
CC(C)OC(=O)[C@@H]1[C@H]2C[C@H]3c4[nH]c5ccccc5c4CCN3C[C@@H]2CC[C@@H]1O
3
O=C(OC[C@H]1CCNC1)[C@@H]1[C@H]2C[C@H]3c4[nH]c5ccccc5c4CCN3C[C@@H]2CC[C@@H]1O
1
N[C@H]1C[C@@H](OC(=O)[C@@H]2[C@H]3C[C@H]4c5[nH]c6ccccc6c5CCN4C[C@@H]3CC[C@@H]2O)C1
3
O=C(O[C@H]1CCOC1)[C@@H]1[C@H]2C[C@H]3c4[nH]c5ccccc5c4CCN3C[C@@H]2CC[C@@H]1O
5
COC(=O)[C@@H]1[C@H]2C[C@H]3c4[nH]c5ccccc5c4CCN3C[C@@H]2CC[C@@H]1O [Compound 1, Yohimbine, reference compound]
2
O=C(OC[C@H]1CCN1)[C@@H]1[C@H]2C[C@H]3c4[nH]c5ccccc5c4CCN3C[C@@H]2CC[C@@H]1O
1
CN1CC[C@H](OC(=O)[C@@H]2[C@H]3C[C@H]4c5[nH]c6ccccc6c5CCN4C[C@@H]3CC[C@@H]2O)C1
1
O=C(OC[C@@H]1CCNC1)[C@@H]1[C@H]2C[C@H]3c4[nH]c5ccccc5c4CCN3C[C@@H]2CC[C@@H]1O
1

We now examine a further compound.
Input: Give its microsomal CLint at 10 µM value. Item: "O=C(O[C@@H]1CCNC1)[C@@H]1[C@H]2C[C@H]3c4[nH]c5ccccc5c4CCN3C[C@@H]2CC[C@@H]1O"
Output: 1

---

tested on: P-gp (human MDR1); assay: in vitro; conditions: dog, MDCK-MDR1
property-label: Papp A→B at 2 h, 10 µM (×10⁻⁶ cm/s)
// units = ×10⁻⁶ cm/s; emit number, no label

Input: Give its Papp A→B at 2 h, 10 µM value. Item: "N[C@H]1C[C@H](OC(=O)[C@@H]2[C@H]3C[C@H]4c5[nH]c6ccccc6c5CCN4C[C@@H]3CC[C@@H]2O)C1"
Output: 0.9

---

assay: in vitro; type: in vitro ADME; settings: human, Caco-2
property-label: recovery at 3 h, 5 µM (%)
// units = %; emit number, no label

O=C(O[C@@H]1CCNC1)[C@@H]1[C@H]2C[C@H]3c4[nH]c5ccccc5c4CCN3C[C@@H]2CC[C@@H]1O
101
O=C(OC1CCNCC1)[C@@H]1[C@H]2C[C@H]3c4[nH]c5ccccc5c4CCN3C[C@@H]2CC[C@@H]1O
101
N[C@H]1C[C@H](OC(=O)[C@@H]2[C@H]3C[C@H]4c5[nH]c6ccccc6c5CCN4C[C@@H]3CC[C@@H]2O)C1
103
O=C(O[C@H]1CCNC1)[C@@H]1[C@H]2C[C@H]3c4[nH]c5ccccc5c4CCN3C[C@@H]2CC[C@@H]1O
112
O=C(OC1CNC1)[C@@H]1[C@H]2C[C@H]3c4[nH]c5ccccc5c4CCN3C[C@@H]2CC[C@@H]1O
101

Input: Give its recovery at 3 h, 5 µM value. Item: "N[C@H]1C[C@@H](OC(=O)[C@@H]2[C@H]3C[C@H]4c5[nH]c6ccccc6c5CCN4C[C@@H]3CC[C@@H]2O)C1"
Output: 101

---

Attribute: IC50
target: ADRA1A (Homo sapiens, UniProt P35348); details: read-out: ADRA1A IC50; antagonist activity, receptor stimulated with EC80 of epinephrine, Chem-1 cells
Sequence (P35348 whole entry): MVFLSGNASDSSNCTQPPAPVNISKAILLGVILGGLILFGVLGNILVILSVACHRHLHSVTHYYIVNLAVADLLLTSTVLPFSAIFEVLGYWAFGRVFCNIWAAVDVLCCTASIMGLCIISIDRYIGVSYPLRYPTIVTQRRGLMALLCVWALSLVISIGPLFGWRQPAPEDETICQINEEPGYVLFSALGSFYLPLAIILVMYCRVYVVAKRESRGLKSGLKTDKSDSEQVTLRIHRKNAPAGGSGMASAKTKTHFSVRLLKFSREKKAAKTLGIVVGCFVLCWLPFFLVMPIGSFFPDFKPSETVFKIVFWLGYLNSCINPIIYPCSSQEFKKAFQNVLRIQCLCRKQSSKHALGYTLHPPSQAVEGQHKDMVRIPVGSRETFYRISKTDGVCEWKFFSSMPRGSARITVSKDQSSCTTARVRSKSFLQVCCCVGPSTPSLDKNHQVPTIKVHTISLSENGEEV
// units = µM; emit number, no label

CC(C)OC(=O)[C@@H]1[C@H]2C[C@H]3c4[nH]c5ccccc5c4CCN3C[C@@H]2CC[C@@H]1O [Compound 3b]
4.16

Input: Give its IC50 value. Item: CC(C)(C)OC(=O)[C@@H]1[C@H]2C[C@H]3c4[nH]c5ccccc5c4CCN3C[C@@H]2CC[C@@H]1O [Compound 3e]
Output: 10.5

Input: Give its IC50 value. Item: CC(C)CCOC(=O)[C@@H]1[C@H]2C[C@H]3c4[nH]c5ccccc5c4CCN3C[C@@H]2CC[C@@H]1O [Compound 3c]
Output: 2.65

Input: Give its IC50 value. Item: CN1CC[C@H](OC(=O)[C@@H]2[C@H]3C[C@H]4c5[nH]c6ccccc6c5CCN4C[C@@H]3CC[C@@H]2O)C1 [Compound 4p]
Output: 3.82
